# target_or_test_system: CYP2D6 (Homo sapiens, UniProt P10635)
# Construct: purchased Gentest Corporation, Woburn, MA (Supersomes); host or cells: baculovirus-insect cells
# Sequence (P10635 whole entry): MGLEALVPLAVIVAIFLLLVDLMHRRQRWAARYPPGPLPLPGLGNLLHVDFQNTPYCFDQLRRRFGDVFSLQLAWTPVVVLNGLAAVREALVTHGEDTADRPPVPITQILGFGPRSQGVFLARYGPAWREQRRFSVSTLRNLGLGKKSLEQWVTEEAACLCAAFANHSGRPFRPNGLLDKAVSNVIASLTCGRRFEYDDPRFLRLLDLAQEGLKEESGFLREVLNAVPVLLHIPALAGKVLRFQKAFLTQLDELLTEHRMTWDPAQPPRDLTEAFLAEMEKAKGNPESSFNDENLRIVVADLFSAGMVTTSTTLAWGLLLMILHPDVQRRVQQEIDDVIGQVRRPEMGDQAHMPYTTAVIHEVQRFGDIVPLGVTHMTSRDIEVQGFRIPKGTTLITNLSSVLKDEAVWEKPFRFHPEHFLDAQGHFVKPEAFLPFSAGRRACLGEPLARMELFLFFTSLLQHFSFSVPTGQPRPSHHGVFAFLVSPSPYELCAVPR
# assay_procedure: Interaction with Cytochrome P450 isoenzymes: CYP2D6
# Type: in vitro ADME
# study_conditions: Supersomes expressing human CYP2D6, substrate AMMC, fluorometric; read-out: CYP450 interaction (IC50, uM) 2D6
Criterion: IC50 strictly less than 20 µM. Met: 1 (yes). Not met: 0 (no).

Solved entries (count: 6):
Task item: Does this molecule meet the criterion IC50 < 20 µM? Fc1cccc(F)c1C1CCN(Cc2c(-c3ccccc3)[nH]c3ccccc23)CC1 [53 (W02005005411), reference compound]
Reply: 1 (yes)

Task item: Please indicate whether the reported IC50 of NC(=O)Cn1c(C(=O)N2CCOCC2)c(CN2CCC(c3c(F)cccc3F)CC2)c2ccccc21 is strictly below 20 µM.
Reply: 1 (yes)

Task item: Input O=C(c1[nH]c2ccccc2c1CN1CCC(c2c(F)cccc2F)CC1)N1CCN(CCOCCO)CC1 ; condition: IC50 strictly below 20 µM. Does it hold?
Reply: 1 (yes)

Task item: Hi there! Is IC50 for O=C(Cn1c(-c2ccccc2)c(CN2CCC(c3c(F)cccc3F)CC2)c2ccccc21)N1CCOCC1 below 20 µM, do you know?
Reply: 0 (no)

Task item: For this molecule, is IC50 lower than 20 µM? Cc1c(CN2CCC(c3c(F)cccc3Cl)CC2)c2ccccc2n1CC(=O)NC1CCN(C)CC1
Reply: 0 (no)

Task item: Threshold test, IC50 < 20 µM: O=C(Cn1c(-c2ccccc2)c(CN2CCC(c3c(F)cccc3Cl)CC2)c2ccccc21)N1CCOCC1
Reply: 0 (no)

Further cases:
Task item: Quick check: IC50 of CC(=O)N(C)C1CCN(C(=O)c2[nH]c3ccccc3c2CN2CCC(c3c(F)cccc3Cl)CC2)C1 (stereo not drawn) under 20 µM?
Reply: 1 (yes)

Task item: Answer whether the molecule CN1CCN(C(=O)Cn2c(-c3ccccc3)c(CN3CCC(c4c(F)cccc4F)CC3)c3ccccc32)CC1 has IC50 strictly less than 20 µM
Reply: 0 (no)

Task item: Report whether reported IC50 is lower than 20 µM (strictly) for NC(=O)Cn1c(C(=O)N2CCOCC2)c(CN2CCC(c3c(F)cccc3Cl)CC2)c2ccccc21
Reply: 1 (yes)

----------
# target_or_test_system: ORL-1 receptor (Homo sapiens, UniProt P41146)
# Sequence (P41146 whole entry): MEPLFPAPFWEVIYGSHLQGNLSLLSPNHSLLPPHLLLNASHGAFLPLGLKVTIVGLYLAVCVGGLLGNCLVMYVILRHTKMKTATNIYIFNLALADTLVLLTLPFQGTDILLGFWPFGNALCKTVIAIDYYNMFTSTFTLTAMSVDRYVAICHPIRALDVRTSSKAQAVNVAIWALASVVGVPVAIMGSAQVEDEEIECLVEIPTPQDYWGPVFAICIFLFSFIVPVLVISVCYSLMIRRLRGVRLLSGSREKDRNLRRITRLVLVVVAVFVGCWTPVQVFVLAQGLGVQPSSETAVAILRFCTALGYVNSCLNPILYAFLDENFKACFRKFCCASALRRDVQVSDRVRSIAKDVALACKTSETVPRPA
# assay_procedure: ORL-1 receptor binding studies, radioligand [3H]-AcRYYRWK-NH2
# study_conditions: radioligand [3H]-AcRYYRWK-NH2, 37°C, 120 min; read-out: ORL-1 Binding affinity (Ki)
So basically: is Ki under 4 nM? Then satisfied. Not under? Then not satisfied.

Some solved entries appear below for comparison.
Task item: Input NC(=O)Cn1c(C(=O)N2CCOCC2)c(CN2CCC(c3c(F)cccc3Cl)CC2)c2ccccc21 [Example 7] ; condition: Ki strictly below 4 nM. Does it hold?
Reply: not satisfied

Task item: Take the compound CN1CCN(C(=O)Cn2c(-c3ccccc3)c(CN3CCC(c4c(F)cccc4F)CC3)c3ccccc32)CC1 [Example 15] and say whether its Ki is less than 4 nM.
Reply: not satisfied

Task item: Lab note: confirm whether the reported Ki for this compound is below 4 nM, equality not counting. compound: O=C(Cn1c(-c2ccccc2)c(CN2CCC(c3c(F)cccc3Cl)CC2)c2ccccc21)N1CCOCC1 [Example 12]
Reply: satisfied

Task item: Bench note: check whether O=C(c1[nH]c2ccccc2c1CN1CCC(c2c(F)cccc2F)CC1)N1CCN(CCOCCO)CC1 [Example 6] shows Ki below 4 nM
Reply: not satisfied

Would you kindly look at the next entry?
Task item: Is it true that Ki reported for CC(=O)N(C)C1CCN(C(=O)c2[nH]c3ccccc3c2CN2CCC(c3c(F)cccc3Cl)CC2)C1 (centres unmarked) [Example 3] is less than 4 nM?
Reply: not satisfied

----------
# target_or_test_system: CYP1A2 (Homo sapiens, UniProt P05177)
# Construct: purchased Gentest Corporation, Woburn, MA (Supersomes); host or cells: baculovirus-insect cells
# Sequence (P05177 whole entry): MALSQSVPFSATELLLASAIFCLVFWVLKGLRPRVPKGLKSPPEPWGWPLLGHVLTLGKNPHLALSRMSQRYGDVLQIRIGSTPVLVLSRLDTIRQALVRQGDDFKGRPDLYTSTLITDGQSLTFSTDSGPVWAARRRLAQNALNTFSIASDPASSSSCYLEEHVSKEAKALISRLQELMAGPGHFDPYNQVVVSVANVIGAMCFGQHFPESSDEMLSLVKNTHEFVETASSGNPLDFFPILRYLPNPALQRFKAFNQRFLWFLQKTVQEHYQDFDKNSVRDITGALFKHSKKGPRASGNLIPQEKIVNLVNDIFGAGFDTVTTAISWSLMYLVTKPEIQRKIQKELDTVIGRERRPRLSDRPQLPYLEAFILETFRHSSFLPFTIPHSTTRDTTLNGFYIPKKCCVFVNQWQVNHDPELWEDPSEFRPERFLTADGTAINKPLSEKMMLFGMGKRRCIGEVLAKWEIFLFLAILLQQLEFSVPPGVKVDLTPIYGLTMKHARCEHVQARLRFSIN
# assay_procedure: Interaction with Cytochrome P450 isoenzymes: CYP1A2
# Type: in vitro ADME
# study_conditions: Supersomes expressing human CYP1A2, substrate CEC, fluorometric; read-out: CYP450 interaction (IC50, uM) 1A2
experimental_readout: IC50

The compound listed as Fc1cccc(F)c1C1CCN(Cc2c(-c3ccccc3)[nH]c3ccccc23)CC1 [53 (W02005005411), reference compound] shows IC50 equal to 11.8 µM

Summary for this compound, NC(=O)Cn1c(C(=O)N2CCOCC2)c(CN2CCC(c3c(F)cccc3F)CC2)c2ccccc21 : IC50 is 86 µM

// sample CC(=O)N(C)C1CCN(C(=O)c2[nH]c3ccccc3c2CN2CCC(c3c(F)cccc3Cl)CC2)C1 (stereo not drawn) , its IC50 was > 100 µM

Entry O=C(Cn1c(-c2ccccc2)c(CN2CCC(c3c(F)cccc3Cl)CC2)c2ccccc21)N1CCOCC1 , IC50 reported as > 100 µM

Quick note, IC50 for O=C(Cn1c(-c2ccccc2)c(CN2CCC(c3c(F)cccc3F)CC2)c2ccccc21)N1CCOCC1 landed at > 100 µM

Per the records, this compound ( NC(=O)Cn1c(C(=O)N2CCOCC2)c(CN2CCC(c3c(F)cccc3Cl)CC2)c2ccccc21 ) has IC50 equal to > 100 µM

Per the records, this compound ( CN1CCN(C(=O)Cn2c(-c3ccccc3)c(CN3CCC(c4c(F)cccc4F)CC3)c3ccccc32)CC1 ) has IC50 equal to > 100 µM

The reported IC50 of the compound O=C(c1[nH]c2ccccc2c1CN1CCC(c2c(F)cccc2F)CC1)N1CCN(CCOCCO)CC1 was > 100 µM

// next item, IC50 requested
Cc1c(CN2CCC(c3c(F)cccc3Cl)CC2)c2ccccc2n1CC(=O)NC1CCN(C)CC1 yielded IC50 of > 100 µM

----------
Recorded log10(IC50) values for a group of compounds are listed next.
# target_or_test_system: CYP3A4 (Homo sapiens)
# Construct: purchased Gentest Corporation, Woburn, MA (Supersomes); host or cells: baculovirus-insect cells
# Sequence (P08684 whole entry): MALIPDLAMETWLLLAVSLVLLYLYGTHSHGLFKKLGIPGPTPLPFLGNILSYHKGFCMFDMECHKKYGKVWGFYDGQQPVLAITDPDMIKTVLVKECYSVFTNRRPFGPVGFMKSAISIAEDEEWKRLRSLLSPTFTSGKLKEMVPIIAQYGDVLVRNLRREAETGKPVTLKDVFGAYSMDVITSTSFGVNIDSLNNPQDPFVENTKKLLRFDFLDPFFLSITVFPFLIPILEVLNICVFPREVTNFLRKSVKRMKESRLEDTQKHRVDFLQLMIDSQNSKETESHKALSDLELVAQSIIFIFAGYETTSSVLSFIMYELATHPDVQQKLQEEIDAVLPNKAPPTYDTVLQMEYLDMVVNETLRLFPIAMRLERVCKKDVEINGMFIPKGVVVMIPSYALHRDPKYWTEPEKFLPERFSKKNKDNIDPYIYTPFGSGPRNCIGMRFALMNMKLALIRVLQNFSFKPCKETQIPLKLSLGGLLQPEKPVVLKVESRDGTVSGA
# assay_procedure: Interaction with Cytochrome P450 isoenzymes: CYP3A4
# Assay type: in vitro ADME
# study_conditions: Supersomes expressing human CYP3A4, substrate BFC, fluorometric; read-out: CYP450 interaction (IC50, uM) 3A4
Scale type: logarithmic (base 10). Underlying IC50 unit: µM.

Worked cases, answers included:
Please fill in: log10(IC50) reported for Cc1c(CN2CCC(c3c(F)cccc3Cl)CC2)c2ccccc2n1CC(=O)NC1CCN(C)CC1 [Example 11] = 0.98

What the record says about NC(=O)Cn1c(C(=O)N2CCOCC2)c(CN2CCC(c3c(F)cccc3Cl)CC2)c2ccccc21 [Example 7] : log10(IC50) is 1.12

The compound listed as O=C(Cn1c(-c2ccccc2)c(CN2CCC(c3c(F)cccc3F)CC2)c2ccccc21)N1CCOCC1 [Example 13] has a reported log10(IC50) of 1.58

Others:
Notebook: NC(=O)Cn1c(C(=O)N2CCOCC2)c(CN2CCC(c3c(F)cccc3F)CC2)c2ccccc21 [Example 8] , log10(IC50) read as 1.41

Field log10(IC50) (entry O=C(c1[nH]c2ccccc2c1CN1CCC(c2c(F)cccc2F)CC1)N1CCN(CCOCCO)CC1 [Example 6] ) reads 1.99

Quick note, log10(IC50) for CN1CCN(C(=O)Cn2c(-c3ccccc3)c(CN3CCC(c4c(F)cccc4F)CC3)c3ccccc32)CC1 [Example 15] landed at 0.79

Lookup result for Fc1cccc(F)c1C1CCN(Cc2c(-c3ccccc3)[nH]c3ccccc23)CC1 [53 (W02005005411), reference compound] ; measured log10(IC50): 1.11

Consider CC(=O)N(C)C1CCN(C(=O)c2[nH]c3ccccc3c2CN2CCC(c3c(F)cccc3Cl)CC2)C1 (stereo not drawn) [Example 3] . Its measured log10(IC50) is 1.74

Lookup result for O=C(Cn1c(-c2ccccc2)c(CN2CCC(c3c(F)cccc3Cl)CC2)c2ccccc21)N1CCOCC1 [Example 12] ; measured log10(IC50): 1.26

----------
# target_or_test_system: CYP2C19 (Homo sapiens)
# Construct: purchased Gentest Corporation, Woburn, MA (Supersomes); host or cells: baculovirus-insect cells
# Sequence (P33261 whole entry): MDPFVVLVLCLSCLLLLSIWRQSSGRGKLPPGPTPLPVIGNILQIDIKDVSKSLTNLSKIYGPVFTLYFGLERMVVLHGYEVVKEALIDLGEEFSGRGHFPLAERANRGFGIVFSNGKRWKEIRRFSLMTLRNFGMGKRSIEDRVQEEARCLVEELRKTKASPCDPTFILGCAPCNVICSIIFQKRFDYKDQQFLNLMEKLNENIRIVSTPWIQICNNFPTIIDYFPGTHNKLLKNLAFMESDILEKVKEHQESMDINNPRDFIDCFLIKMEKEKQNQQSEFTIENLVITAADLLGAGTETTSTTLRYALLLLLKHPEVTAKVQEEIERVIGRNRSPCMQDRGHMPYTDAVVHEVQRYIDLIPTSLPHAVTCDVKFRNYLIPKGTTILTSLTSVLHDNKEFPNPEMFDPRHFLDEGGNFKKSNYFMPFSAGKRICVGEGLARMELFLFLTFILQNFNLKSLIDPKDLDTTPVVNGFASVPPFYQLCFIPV
# assay_procedure: Interaction with Cytochrome P450 isoenzymes: CYP2C19
# Format: in vitro ADME
# study_conditions: Supersomes expressing human CYP2C19, substrate CEC, fluorometric; read-out: CYP450 interaction (IC50, uM) 2C19
experimental_readout: IC50 (µM)
Just the number please, in µM, no unit attached.

Case NC(=O)Cn1c(C(=O)N2CCOCC2)c(CN2CCC(c3c(F)cccc3F)CC2)c2ccccc21 , CYP2C19 (Homo sapiens), IC50 recorded as 70.1

Response field IC50 (CYP2C19 (Homo sapiens)) for item CC(=O)N(C)C1CCN(C(=O)c2[nH]c3ccccc3c2CN2CCC(c3c(F)cccc3Cl)CC2)C1 (stereo not drawn) : 47.5

Item: NC(=O)Cn1c(C(=O)N2CCOCC2)c(CN2CCC(c3c(F)cccc3Cl)CC2)c2ccccc21 | System: CYP2C19 (Homo sapiens) | IC50: 25.1

Kindly note: CYP2C19 (Homo sapiens), Fc1cccc(F)c1C1CCN(Cc2c(-c3ccccc3)[nH]c3ccccc23)CC1 [53 (W02005005411), reference compound] , IC50 value reported: 17.4

Case CN1CCN(C(=O)Cn2c(-c3ccccc3)c(CN3CCC(c4c(F)cccc4F)CC3)c3ccccc32)CC1 , CYP2C19 (Homo sapiens), IC50 recorded as 38.3

Measured IC50 for this entry O=C(Cn1c(-c2ccccc2)c(CN2CCC(c3c(F)cccc3F)CC2)c2ccccc21)N1CCOCC1 on CYP2C19 (Homo sapiens): 62.6

Entry Cc1c(CN2CCC(c3c(F)cccc3Cl)CC2)c2ccccc2n1CC(=O)NC1CCN(C)CC1 : IC50 on CYP2C19 (Homo sapiens) = 47.4
